The reported measurements were obtained from patent US20070042507A1.

Below, each of the compounds is paired with its reported logD value.
condition: pH 7.4, Mean logD value measured by present invention (pH = 7.4), mean of five, water:n-octanol 100:1
Enter a number only.

These recorded examples may help you get a feel for the data.
structure: O=[N+]([O-])c1ccc(O)cc1
logD: 1.81

structure: O=[N+]([O-])c1ccc(CO)cc1
logD: 1.27

structure: c1ccc2ncccc2c1
logD: 2.19

structure: CN(C)CCCN1c2ccccc2Sc2ccc(Cl)cc21
logD: 3.16

structure: Nc1ccccc1
logD: 0.973

Now look at this entry.
Short answer for COc1ccc([N+](=O)[O-])cc1 : logD was 2.01

----------
assay-text: physchem
condition: pH 7.4, logD, Magnetic nano-composite method
measurement-label: logD
Enter a number only.

Short answer for COc1ccc([N+](=O)[O-])cc1 [4-Nitroanisole] : logD was 2.01

----------
assay-text: n-octanol/water logD by prior art shake-flask method
condition: n-octanol/water, pH 7.4, Mean logD value measured (Prior art method) (ph = 7.4), mean of five, water:n-octanol 100:1
measurement-label: logD

structure: COc1ccc([N+](=O)[O-])cc1
measured-value: 2.01
--
structure: CN(C)CCCN1c2ccccc2Sc2ccc(Cl)cc21
measured-value: 3.08

Short answer for c1ccc2ncccc2c1 : logD was 2.12

----------
assay-text: physchem
condition: pH 7.4, LogD value measured (Prior art method) (pH = 7.4)
measurement-label: logD
Enter a number only.

Short answer for COc1ccc([N+](=O)[O-])cc1 : logD was 2.02

----------
assay-text: physchem
condition: pH 7.4, logD, Shake-Flask Method
measurement-label: logD
Enter a number only.

Short answer for COc1ccc([N+](=O)[O-])cc1 : logD was 2.01
